Test system: tonic extensor seizures elicited by maximal electroshock
Assay: electroshock induced convulsion inhibition assay (E.S.)
Assay type: in vivo, Cox standard strain albino male mice
Details: oral gavage, mice; time between dosing and administration of the electroshock
Excerpt: In the electroshock induced convulsion inhibition assay (E.S.), the compound to be tested was suspended in acacia and administered by gavage to each of ten Cox standard strain albino male mice (18-24 g) at the dose level being investigated. […] The test results summarized in Table I are reported as the ED50 values calculated by computer interpolation of fixed doses at the time interval found to provide an optimal response after dosing. […]
Entries and their measured Time after dosing providing an approximately optimal response follow.
API: value field is a number in min; no unit string.

COMPOUND | SYSTEM_UNDER_TEST | U | VALUE_MEASURED
Cc1ccc(C(=O)Nc2c(C)cccc2Cl)cn1 [Example 3] | tonic extensor seizures elicited by maximal electroshock | min | 60
Cc1cccc(C)c1NC(=O)c1cccnc1 [Compound A, reference compound] | tonic extensor seizures elicited by maximal electroshock | min | 30
Cc1cccc(C)c1NC(=O)c1ccc(Cl)nc1 [Example 1] | tonic extensor seizures elicited by maximal electroshock | min | 30
CNc1ccc(C(=O)Nc2c(C)cccc2C)cn1 [Example 4] | tonic extensor seizures elicited by maximal electroshock | min | 60

Turning to the following compound.
Reported Time after dosing providing an approximately optimal response ( Cc1ccc(C(=O)Nc2c(C)cccc2C)cn1 [Example 2] ) = 60

###

system: tonic extensor seizures elicited by maximal electroshock; assay: electroshock induced convulsion inhibition assay (E.S.); type: in vivo, Cox standard strain albino male mice; settings: Mus musculus; oral dose (gavage), mice; 0.2 second, 50 milliampere corneal electroshock; inhibition of extensor tonic convulsions in half of the animals; at time of optimal response
RECORDED_ENDPOINT: ED50
The answer consists of two parts: a number and, after it, its unit.

MOLECULE | ED50
Cc1cccc(C)c1NC(=O)c1cccnc1 [Compound A, reference compound] | 24.5 mg/kg
Cc1ccc(C(=O)Nc2c(C)cccc2Cl)cn1 [Example 3] | 20.2 mg/kg

Query Cc1ccc(C(=O)Nc2c(C)cccc2C)cn1 [Example 2] yields ED50 of 6.7 mg/kg

The reported value for CNc1ccc(C(=O)Nc2c(C)cccc2C)cn1 [Example 4] in terms of ED50 is 8.7 mg/kg

What the record says about Cc1cccc(C)c1NC(=O)c1ccc(Cl)nc1 [Example 1] : ED50 is 31.7 mg/kg
